These data points were gathered from patent US20060189673A1.

Molecular target: 15-lipoxygenase (15-LO) (Oryctolagus cuniculus, UniProt P12530)
Sequence (P12530 1-663): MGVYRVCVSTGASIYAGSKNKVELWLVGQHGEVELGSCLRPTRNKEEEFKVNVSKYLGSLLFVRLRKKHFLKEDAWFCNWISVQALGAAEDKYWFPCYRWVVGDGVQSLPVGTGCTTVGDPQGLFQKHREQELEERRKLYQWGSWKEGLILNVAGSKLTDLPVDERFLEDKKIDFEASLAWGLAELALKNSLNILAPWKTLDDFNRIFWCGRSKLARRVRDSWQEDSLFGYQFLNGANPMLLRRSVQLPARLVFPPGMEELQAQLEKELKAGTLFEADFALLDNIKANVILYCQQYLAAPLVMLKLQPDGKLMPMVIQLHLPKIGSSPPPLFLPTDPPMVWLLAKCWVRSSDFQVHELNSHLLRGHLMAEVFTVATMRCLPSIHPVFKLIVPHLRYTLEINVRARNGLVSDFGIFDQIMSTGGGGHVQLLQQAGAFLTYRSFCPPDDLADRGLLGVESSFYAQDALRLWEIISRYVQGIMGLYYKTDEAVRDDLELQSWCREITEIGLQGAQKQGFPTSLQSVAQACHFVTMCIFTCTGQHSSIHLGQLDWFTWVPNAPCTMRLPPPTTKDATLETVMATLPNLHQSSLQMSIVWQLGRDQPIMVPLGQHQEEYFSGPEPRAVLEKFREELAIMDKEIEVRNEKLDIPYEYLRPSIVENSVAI
ASSAY READOUT: pIC50
# pIC50: negative log10 of molar concentration; output just the value

## Input Name the recorded pIC50 for Cc1c(C)c2c(c(C)c1N)CC(C)(C(=O)Nc1ccc(-c3ccn[nH]3)cc1)O2 (stereo not shown) [Compound 37] .
## Output 5.69
